test system: NCI-H1703 cells; assay: GLS Cell Proliferation Assay (NCI-H1703); type: cell-based; settings: Homo sapiens, 120 h; NCI-H1703 cells, 5 days incubation, Sytox Green; read-out: Assay c) GLS Cell Proliferation Assay
// IC50 lookup, one value per entry
Assay Readout: IC50 (nM)

# Compound Smiles, Assay Readout, Observed Result
records = [
    ("COc1ccccc1CC(=O)Nc1ccc(N2CC[C@@H](Nc3cccnn3)C2)nn1", "IC50", 43),
    ("COc1cccc([C@H](OC)C(=O)Nc2ccc(N3CC[C@@H](Nc4cccnn4)C3)nn2)c1", "IC50", 3),
    ("CO[C@H](C(=O)Nc1ccc(N2CC[C@@H](Nc3cccnn3)C2)nn1)c1cccc(OC(F)(F)F)c1", "IC50", 11),
    ("O=C(Cc1ccccc1C(F)(F)F)Nc1ccc(N2CC[C@@H](Nc3cccnn3)C2)nn1", "IC50", 3),
    ("O=C(Cc1ccccc1OC(F)(F)F)Nc1ccc(N2CC[C@@H](Nc3cccnn3)C2)nn1", "IC50", 12),
    ("CO[C@H](C(=O)Nc1ccc(N2CC[C@@H](Nc3cccnn3)C2)nn1)c1cccc(OC(F)F)c1", "IC50", 9),
]

---

Below are molecules with their IC50 as measured on GLS1 (Homo sapiens (Human)).
Sequence (O94925 63-669): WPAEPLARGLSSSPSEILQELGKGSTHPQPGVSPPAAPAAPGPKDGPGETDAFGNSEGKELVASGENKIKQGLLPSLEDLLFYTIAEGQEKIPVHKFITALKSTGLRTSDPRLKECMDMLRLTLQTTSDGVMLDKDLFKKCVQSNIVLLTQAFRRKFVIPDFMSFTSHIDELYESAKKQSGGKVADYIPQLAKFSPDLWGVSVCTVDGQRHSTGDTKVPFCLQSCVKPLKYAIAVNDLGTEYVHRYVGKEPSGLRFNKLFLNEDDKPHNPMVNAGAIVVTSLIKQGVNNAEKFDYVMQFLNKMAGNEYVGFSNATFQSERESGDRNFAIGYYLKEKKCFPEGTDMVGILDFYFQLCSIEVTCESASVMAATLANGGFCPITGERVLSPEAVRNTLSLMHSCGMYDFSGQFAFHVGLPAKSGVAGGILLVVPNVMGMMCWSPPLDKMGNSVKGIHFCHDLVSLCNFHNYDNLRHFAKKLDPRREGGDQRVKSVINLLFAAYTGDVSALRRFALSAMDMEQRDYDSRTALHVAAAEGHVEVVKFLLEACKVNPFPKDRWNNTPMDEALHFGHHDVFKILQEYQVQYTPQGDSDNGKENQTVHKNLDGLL

# Molecule, System, U, IC50
data = [
    ("O=C(Cc1ccccc1C(F)(F)F)Nc1ccc(N2CC[C@@H](Nc3cccnn3)C2)nn1 [Example 5]", "GLS1 (Homo sapiens (Human))", "nM", 30.6),
    ("COc1ccccc1CC(=O)Nc1ccc(N2CC[C@@H](Nc3cccnn3)C2)nn1 [Example 4]", "GLS1 (Homo sapiens (Human))", "nM", 30.9),
    ("O=C(Cc1ccccc1OC(F)(F)F)Nc1ccc(N2CC[C@@H](Nc3cccnn3)C2)nn1 [Example 6]", "GLS1 (Homo sapiens (Human))", "nM", 25.2),
]
